Data origin: patent US20150140169

Target: T1, alpha-s1 casein from Bos taurus
T1 chain: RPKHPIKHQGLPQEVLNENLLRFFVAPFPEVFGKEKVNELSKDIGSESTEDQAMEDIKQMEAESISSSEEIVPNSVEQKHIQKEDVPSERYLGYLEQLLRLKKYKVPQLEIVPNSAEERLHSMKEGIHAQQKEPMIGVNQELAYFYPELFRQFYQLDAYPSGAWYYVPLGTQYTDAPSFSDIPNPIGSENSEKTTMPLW
# label = y if αs1-I CN/αs1 CN, 24 hours, 11° C. < 4 else n

Input line: A record lists bovine chymosin B variant #7 (K221V) (protein) GEVASVPLTNYLDSQYFGKIYLGTPPQEFTVLFDTGSSDFWVPSIYCKSNACKNHQRFDPRKSSTFQNLGKPLSIHYGTGSMQGILGYDTVTVSNIVDIQQTVGLSTQEPGDVFTYAEFDGILGMAYPSLASEYSIPVFDNMMNRHLVAQDLFSVYMDRNGQESMLTLGAIDPSYYTGSLHWVPVTVQQYWQFTVDSVTISGVVVACEGGCQAILDTGTSVLVGPSSDILNIQQAIGATQNQYGEFDIDCDNLSYMPTVVFEINGKMYPLTPSAYTSQDQGFCTSGFQSENHSQKWILGDVFIREYYSVFDRANNLVGLAKAI . Is its αs1-I CN/αs1 CN, 24 hours, 11° C. below 4?
Output line: n

Input line: Please let me know if Maxiren (recombinant wild-type calf chymosin B) (protein) GEVASVPLTNYLDSQYFGKIYLGTPPQEFTVLFDTGSSDFWVPSIYCKSNACKNHQRFDPRKSSTFQNLGKPLSIHYGTGSMQGILGYDTVTVSNIVDIQQTVGLSTQEPGDVFTYAEFDGILGMAYPSLASEYSIPVFDNMMNRHLVAQDLFSVYMDRNGQESMLTLGAIDPSYYTGSLHWVPVTVQQYWQFTVDSVTISGVVVACEGGCQAILDTGTSKLVGPSSDILNIQQAIGATQNQYGEFDIDCDNLSYMPTVVFEINGKMYPLTPSAYTSQDQGFCTSGFQSENHSQKWILGDVFIREYYSVFDRANNLVGLAKAI shows αs1-I CN/αs1 CN, 24 hours, 11° C. below 4.
Output line: n

Input line: Hi there! Is αs1-I CN/αs1 CN, 24 hours, 11° C. for Chymax M (recombinant camel chymosin) (protein) GKVAREPLTSYLDSQYFGKIYIGTPPQEFTVVFDTGSSDLWVPSIYCKSNVCKNHHRFDPRKSSTFRNLGKPLSIHYGTGSMEGFLGYDTVTVSNIVDPNQTVGLSTEQPGEVFTYSEFDGILGLAYPSLASEYSVPVFDNMMDRHLVARDLFSVYMDRNGQGSMLTLGAIDPSYYTGSLHWVPVTLQQYWQFTVDSVTINGVAVACVGGCQAILDTGTSVLFGPSSDILKIQMAIGATENRYGEFDVNCGNLRSMPTVVFEINGRDYPLSPSAYTSKDQGFCTSGFQGDNNSELWILGDVFIREYYSVFDRANNRVGLAKAI below 4, do you know?
Output line: y

Input line: Threshold test, αs1-I CN/αs1 CN, 24 hours, 11° C. < 4: bovine chymosin B variant #6 (K221M) (protein) GEVASVPLTNYLDSQYFGKIYLGTPPQEFTVLFDTGSSDFWVPSIYCKSNACKNHQRFDPRKSSTFQNLGKPLSIHYGTGSMQGILGYDTVTVSNIVDIQQTVGLSTQEPGDVFTYAEFDGILGMAYPSLASEYSIPVFDNMMNRHLVAQDLFSVYMDRNGQESMLTLGAIDPSYYTGSLHWVPVTVQQYWQFTVDSVTISGVVVACEGGCQAILDTGTSMLVGPSSDILNIQQAIGATQNQYGEFDIDCDNLSYMPTVVFEINGKMYPLTPSAYTSQDQGFCTSGFQSENHSQKWILGDVFIREYYSVFDRANNLVGLAKAI
Output line: n

Input line: # TODO verify αs1-I CN/αs1 CN, 24 hours, 11° C. < 4 strictly for this protein: bovine chymosin B variant #71 (A51V, K221V) (protein) GEVASVPLTNYLDSQYFGKIYLGTPPQEFTVLFDTGSSDFWVPSIYCKSNVCKNHQRFDPRKSSTFQNLGKPLSIHYGTGSMQGILGYDTVTVSNIVDIQQTVGLSTQEPGDVFTYAEFDGILGMAYPSLASEYSIPVFDNMMNRHLVAQDLFSVYMDRNGQESMLTLGAIDPSYYTGSLHWVPVTVQQYWQFTVDSVTISGVVVACEGGCQAILDTGTSVLVGPSSDILNIQQAIGATQNQYGEFDIDCDNLSYMPTVVFEINGKMYPLTPSAYTSQDQGFCTSGFQSENHSQKWILGDVFIREYYSVFDRANNLVGLAKAI
Output line: n
